Molecular target: T1, PUF4 RNA-binding domain (Saccharomyces cerevisiae, UniProt P25339 537-888)
T1 sequence: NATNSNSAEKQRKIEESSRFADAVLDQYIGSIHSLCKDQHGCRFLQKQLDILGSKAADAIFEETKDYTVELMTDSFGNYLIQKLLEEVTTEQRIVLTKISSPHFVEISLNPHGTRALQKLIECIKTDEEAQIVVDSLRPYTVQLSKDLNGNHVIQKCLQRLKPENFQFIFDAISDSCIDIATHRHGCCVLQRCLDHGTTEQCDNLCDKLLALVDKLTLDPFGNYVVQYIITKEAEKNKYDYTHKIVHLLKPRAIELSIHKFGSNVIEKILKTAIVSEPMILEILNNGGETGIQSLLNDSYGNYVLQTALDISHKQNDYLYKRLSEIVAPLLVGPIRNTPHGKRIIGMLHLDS
Assay: Mg; RNA-MaP; 20 mM Na-HEPES pH 7.4, 30 mM KOAc, 0.75 mM MgCl2, 0.1% Tween-20, 5% glycerol, 0.1 mg/mL BSA, 2 mM DTT; 25 C; 0.0125-409.6 nM protein
Details: tags: N-His6-TEV cleaved; C-SNAP kept, Cy3B-labelled; label: tethered on chip by stalled RNA polymerase
# Lookup of reported pKd keyed by entry
Friendly reminder that pKd comes from taking -log10 of the concentration in mol/L.

Look over these answered cases.
Id_ii_S2_P5E.3_K5.2_C5.2_H5.2_A5.1_F5.1_T5.2_[T11G]_[A12C] (ssRNA) RNA: UUUGAUUAAUAUGAUAUCGUUCUUUCUCUUAUAUUAUUAGCUUCUUUCUCGAUAUCAUAUUAAUCUUU    6.89
UCUCUUUGUACCAUGAUCUCUU (ssRNA) [Ic_S1_P5E.1_K5.1_C5.1_H5.1_A5.1_[T5C]_[T6C]_F5.1_[T9G]_T5.1]    8.10
Ic_S4_P4E.1_K4.1_C4.1_H4.1_A4.1_[T5G]_[A6C]_F4.1_[T8G]_[A9T]_T4.1 (ssRNA) RNA: UUUGACAACUGAUCGUUCUUUCUUGUAGCUGUUUCUUUCUCGAUCAGUUGUCUUU    6.93
ACAAACUGUAUUACUCUCUUAACAAAC (ssRNA) [Ie_S3_P5E.1_K5.1_C5.1_H5.1_A5.1_[+7CTCTC]_F5.1_T5.1]    6.89

Consider the record given below.
INPUT: Need pKd, item UCUCUUUCUUGUAUUUUAAUUCUCUU (ssRNA) [Id_iii_S1_P4E.8_K4.4_C4.3_H4.1_A4.2_F4.1_T4.2_[G10A]]
OUTPUT: 8.44
